// provenance: paper PMC4336329

- Study target: human ether-à-go-go-related gene (hERG) potassium channel (human);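 also: peak tail current of the secondary pulse compared with the same well before compound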
- Sequence (Q12809 whole entry, looked up): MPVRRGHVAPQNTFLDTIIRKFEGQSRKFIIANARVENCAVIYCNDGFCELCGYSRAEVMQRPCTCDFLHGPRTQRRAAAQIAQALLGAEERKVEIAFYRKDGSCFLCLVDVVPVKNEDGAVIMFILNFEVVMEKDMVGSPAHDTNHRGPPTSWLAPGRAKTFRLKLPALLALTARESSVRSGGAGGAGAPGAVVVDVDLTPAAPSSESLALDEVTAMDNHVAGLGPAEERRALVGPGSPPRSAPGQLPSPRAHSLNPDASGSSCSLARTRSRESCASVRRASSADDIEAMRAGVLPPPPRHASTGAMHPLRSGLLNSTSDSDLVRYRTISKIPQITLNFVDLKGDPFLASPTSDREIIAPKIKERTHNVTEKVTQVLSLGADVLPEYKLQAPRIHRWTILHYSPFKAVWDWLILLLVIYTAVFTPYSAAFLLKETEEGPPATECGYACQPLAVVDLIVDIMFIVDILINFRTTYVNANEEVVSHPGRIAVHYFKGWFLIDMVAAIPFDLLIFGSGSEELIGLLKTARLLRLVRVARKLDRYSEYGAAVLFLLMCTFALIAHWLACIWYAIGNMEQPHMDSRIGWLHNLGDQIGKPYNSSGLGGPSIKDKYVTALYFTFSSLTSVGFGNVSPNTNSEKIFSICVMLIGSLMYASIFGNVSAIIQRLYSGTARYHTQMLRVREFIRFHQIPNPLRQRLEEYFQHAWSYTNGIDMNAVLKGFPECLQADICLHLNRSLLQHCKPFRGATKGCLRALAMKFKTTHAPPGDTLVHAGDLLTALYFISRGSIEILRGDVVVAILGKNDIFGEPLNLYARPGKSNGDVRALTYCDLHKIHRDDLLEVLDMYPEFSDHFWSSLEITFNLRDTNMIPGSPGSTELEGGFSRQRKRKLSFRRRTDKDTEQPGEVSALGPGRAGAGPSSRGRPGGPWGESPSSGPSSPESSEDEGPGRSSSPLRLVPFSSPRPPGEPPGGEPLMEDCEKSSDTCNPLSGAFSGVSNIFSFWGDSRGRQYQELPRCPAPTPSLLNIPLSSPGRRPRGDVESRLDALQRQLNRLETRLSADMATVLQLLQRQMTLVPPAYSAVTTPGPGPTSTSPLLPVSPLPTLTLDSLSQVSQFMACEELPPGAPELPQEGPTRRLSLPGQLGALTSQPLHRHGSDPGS
- Measurement notes: primary screen, population patch clamp on CHO cells stably expressing hERG; higher = less effect of the substance
The campaign covered roughly 310,000 compounds. About 14,000 (4.5%) showed an effect of 50% or more. Effects have a minus sign here. For the sample, strong results were picked, then their nearest neighbours and some compounds at random.
Observable: hERG current change (%, negative = inhibition) at 10uM
Express the reported value numerically, then name its unit.

CCN(C(=S)Nc1ccc(OC(F)F)cc1)C1CCCCC1: -22.8%
O=C(c1cccc(Cl)c1)C1CCCN(Cc2ccc(N3CCNC3=O)cc2)C1 (stereo not shown): -43.7%
CCN1CCN(S(=O)(=O)c2cccc3nsnc23)CC1: -5.57%
CCC(C)(C)NCC(=O)Nc1ccc(OC(F)(F)F)cc1: -32.7%
CC1CCC(NC(=O)c2ccc3snnc3c2)CC1 (stereo not shown): 21.3%

Respectfully, I request hERG current change (%, negative = inhibition) at 10uM for each entry included below.
1. COc1ccc(OC)c(NC(=S)NCc2cccnc2)c1
2. CCOC(=O)N1CCN(c2nnc(-c3ccc(C)cc3)c3ccccc23)CC1
3. O=C(c1ccc(=O)oc1)N1CCC(C(O)(c2ccccc2)c2ccccc2)CC1
4. CC1(C)C2CCC13CS(=O)(=O)N[C@@H]3C2 (stereo partly shown)
5. O=C(CNCC1CCCCC1)Nc1ccc(N2CCCCC2)cc1.O=C(O)C(=O)O
6. CC(C)n1c(N2CCN(C(=O)Nc3ccc(F)cc3F)CC2)nc2ccccc21

result:
1: 8.59%; 2: -70.1%; 3: -29.2%; 4: 20.5%; 5: -17.3%; 6: -26.3%

Respectfully, I request hERG current change (%, negative = inhibition) at 10uM for each entry included below.
1. O=C(NCCN1CCOCC1)c1ccc(F)cc1
2. COC(=O)NNC(=O)c1ccccc1C
3. CC(Oc1ccccc1)C(=O)N1CCC2(CC1)Oc1ccc(F)cc1C(=O)C21CC(c2cccnc2)=NO1 (stereo not shown)
4. COc1ccc(NC(=S)NN2C(C)CCCC2C)cc1 (stereo not shown)
5. CC(C)(C)NS(=O)(=O)c1cc2c3c(c1)CCN3C(=O)CC2
6. O=C1CCc2cc(S(=O)(=O)NC3CCCCC3)cc3c2N1CC3
7. COc1ccc(C(=O)NCCCN2CCOCC2)cc1

result:
1. 1.66%
2. -11.7%
3. -20.5%
4. 16.6%
5. 17.4%
6. 1.44%
7. -1.82%
